These data points were gathered from patent US20200024319A1.

target: T1, wild-type human IL-2 (human, UniProt P60568 21-153); experiment: BIACORE
T1 construct: also called hIL-2
T1 sequence (P60568 21-153 limits assumed): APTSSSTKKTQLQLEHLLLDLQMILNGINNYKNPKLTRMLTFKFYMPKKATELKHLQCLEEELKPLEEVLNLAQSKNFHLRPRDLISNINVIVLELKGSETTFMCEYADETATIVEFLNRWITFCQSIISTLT
OBSERVABLE: Kd

Retrieve Kd measured for 2H11 (antibody, V domains shown) VH: EVQLVQSGAEVKKPGESLKISCKGSGYNFTTYWIGWVRQMPGKGLEWMGIIYPGDSDTRYSPSFQGQVTISADKSINTAYLQWSSLKASDTAIYYCARDTGYFDYWGQGTLVTVSS VL: SYELTQPPSVSVSPGQTARITCSGDALPRKFAYWYQQKSGQAPVLVIYEDRKRPSGIPERFSGSSSGTMATLTISGAQVEDEADYYCYSTDRSGDHVVFGGGTKLTVL and print it. ~0.03 nM
